Test system: DU-145 prostate
Experiment: NCI tumour cell line growth inhibition, 48 h
measured quantity: TGI

1) O=C1/C(=C/c2ccc(Cl)cc2)N=C(c2ccccc2)N1c1ccc(S(=O)(=O)Nc2nccs2)cc1 | > 100 µM
2) CC1OC(OC2C(O)COC(OC3C(C)OC(OC4C(OC(=O)[C@]56CCC(C)(C)C[C@@H]5C5=CCC7[C@@]8(C)C[C@H](O)[C@H](OC9OC(CO)C(O)C(OC%10OC(CO)C(O)C(O)C%10O)C9O)[C@@](C)(CO)[C@@H]8CC[C@@]7(C)[C@]5(C)CC6)OCC(O)C4O)C(O)C3O)C2O)C(O)C(O)C1O (some centres not stated) | 29 µM
3) CCCCCCCC(=O)SCC/C=C/[C@@H]1CC(=O)NCc2nc(co2)C2=N[C@@](C)(CS2)C(=O)N[C@@H](C(C)C)C(=O)O1 | > 50 µM
4) C=CC[C@@]1(C)CCCCCCCCC[C@@](C)(CC=C)C1=O | > 100 µM
5) CC(C)C1OC(/C=C/c2ccccc2)OCC1(C)C (configuration not stated) | > 100 µM
6) NC(CCOCCP(=O)(O)CCOCCC(N)C(=O)O)C(=O)O (configuration not stated) | > 100 µM

Next, consider the following compound.
Need TGI of Cc1cc(C)nc(SC2=C(Nc3cccc(Cl)c3C)C(=O)N(Cc3ccccc3)C2=O)n1 , thanks. > 160 µM

These data points were gathered from PubChem BioAssay (NCI).
